Tested on: LOX IMVI melanoma
Procedure text: NCI tumour cell line growth inhibition, 48 h
Measured quantity: TGI

In the examples that follow, each entry is paired with its recorded TGI.
- Compound: "COC(C(=O)C(O)C(C)O)C1Cc2cc3cc(OC4CC(OC5CC(O)C(O)C(C)O5)C(O)C(C)O4)c(C)c(O)c3c(O)c2C(=O)C1OC1CC(OC2CC(O)C(OC3CC(C)(O)C(O)C(C)O3)C(C)O2)C(O)C(C)O1 (stereo unspecified)"
  TGI: "15 µg/mL"
- Compound: "CC(C)OP(=O)(OC(C)C)c1ccc2c(c1)OCCOCCOCCOCCO2"
  TGI: "> 100 µM"
- Compound: "O=C(Nc1c(C(=O)NC2CCCCC2)[nH]c(=O)[nH]c1=O)c1ccc(Cl)cc1"
  TGI: "> 100 µM"
- Compound: "Cn1c(=O)c2ccc(-c3ccc(Br)cc3)nc2n(C)c1=O"
  TGI: "> 100 µM"
- Compound: "COc1cc2nc(-c3ccc(Cl)cc3)cc(OCCCN3CCCC3)c2cc1OC"
  TGI: "0.446 µM"

Please look up its TGI: CCN(Cc1ccccc1Cl)c1ccc(CO)c(Cl)c1 30.5 µM

Would you kindly share the measured TGI for CSc1ccc(OCC2OC2O)cc1 (stereo unspecified) ? > 31.6 µM

Given the compound CN(C)CC1CCC/C(=C\c2ccc(OC(=O)/C=C/c3ccccc3)cc2)C1=O (stereo unspecified) , what is its reported TGI? 1.7 µM

Item Cn1c2ccccc2c(=O)c2c(O)cc3c(c21)CC(C1(C)CO1)O3 (stereo unspecified) has what recorded TGI? 0.0613 µM

Suppose we examine the compound CCCCCCCNC(P(=O)(O)O)P(=O)(O)O ; what TGI value has been reported? > 100 µM

----------
Examples of molecules with documented TGI follow.
System: HOP-62 NSCLC
Procedure text: NCI tumour cell line growth inhibition, 48 h

Worked examples, 3 molecules total:
- Molecule: "Cc1ccc2c(c1)C1(OC(=O)c3ccccc31)c1ccc(F)cc1O2 (stereo unspecified)"
  Reading: "> 100 µM"
- Molecule: "S=C(N/N=C/c1ccccn1)Nc1ccc(Cl)cc1"
  Reading: "17.4 µM"
- Molecule: "COc1cccc(NC(=O)C(C)(C)C)c1SSc1c(NC(=O)C(C)(C)C)cccc1OC"
  Reading: "> 100 µM"

Can you look up TGI on HOP-62 NSCLC for CN1CC[C@]2(c3cccc(O)c3)CC(=O)/C(=C/c3ccccc3)[C@H]1C2 ? 10.8 µM

TGI of CN(C)c1ccc(-c2c(C#N)c(O)n(NS(=O)(=O)c3ccccc3)c(=O)c2C#N)cc1 on HOP-62 NSCLC? > 100 µM

What measured TGI is associated with COC(=O)NC(=Nc1ccc(Oc2ccccc2)cc1NC=O)NC(=O)OC on HOP-62 NSCLC? > 100 µM

----------
System: NCI-H226 lung
Procedure text: NCI tumour cell line growth inhibition, 48 h
TGI for assorted compounds

Some solved entries appear below for comparison.
- Compound: "CCCCCCCNC(P(=O)(O)O)P(=O)(O)O"
  Target or system: "NCI-H226 lung"
  TGI: "> 100 µM"
- Compound: "CC(=O)OC1CC2(C)OC(Cc3ccccc32)O1 (stereo not given)"
  Target or system: "NCI-H226 lung"
  TGI: "> 100 µM"

Turning now to a further record.
# query: TGI | item COc1cc2c(cc1OC)CN1CCCc3cc(OC)c(OC)cc3C1C2 (stereo not given) | system: NCI-H226 lung 96.1 µM

----------
Test system: BT-549 breast
Procedure text: NCI tumour cell line growth inhibition, 48 h
Here the recorded GI50 is given for each entry.

See these solved cases before continuing.
- Molecule: "Fc1ccc(-c2nn3c(-c4cc(C(F)(F)F)cc(C(F)(F)F)c4)nnc3s2)cc1"
  Reading: "> 50 µM"
- Molecule: "COc1cc2nc(-c3ccc(Cl)cc3)cc(OCCCN3CCCC3)c2cc1OC"
  Reading: "1.77 µM"
- Molecule: "CCCCCCCCCCCCCCCC(=O)N[C@H](/C=C/[C@H](O)CCCCCCCCCCCCC)CO"
  Reading: "> 100 µM"
- Molecule: "CCOC(=O)c1ccc2c(c1)nc(/C=C/c1ccc(Cl)cc1)n2-c1cc(C(C)(C)C)[nH]n1"
  Reading: "4.54 µM"
- Molecule: "C=C1CCC2C3(C)COC(c4c(OC)cccc4OC)OC3CCC2(C)C1C/C=C1/C(=O)OCC1O (configuration not stated)"
  Reading: "2.25 µM"
- Molecule: "CCCCCCCCCCC/C=C\\C[C@H](O)C/C=C1/C(=O)C=C[C@@H]1C/C=C\\CCCC(=O)OC"
  Reading: "0.75 µM"

Which value of GI50 has been reported for CCN(Cc1ccccc1Cl)c1ccc(CO)c(Cl)c1 in the records? 15.8 µM

// returns reported GI50 for input COc1cc(/C=C2\Oc3cc(OCCCN4CCCC4)ccc3C2=O)cc(OC)c1 8.76 µM

GET /values?readout=GI50&item= CCC(C)[C@H](NC(=O)NC(=O)NC(=O)CI)C(=O)OC (some centres not stated) 10.6 µM

What does the data say about its GI50? Entry: Cc1cccc2nc3cccc(C(=O)NCCNCCNCCNC(=O)c4cccc5nc6cccc(C)c6nc45)c3nc12 1.73 µM

For the molecule shown here, O=[N+]([O-])c1ccc(Sc2nc(Cl)nc(NC3CCCC3)n2)cc1 , give the reported GI50. > 10 µM

I'd like to know its GI50. The molecule in question is CO[C@]12C=C/C(=C(/C(=O)OCc3cccnc3)C(=O)CCCCCCCC[C@@]3(OC)C=C/C(=C(/C(=O)OCc4cccnc4)C(=O)CCCCCCCC1)O3)O2 1.51 µM

----------
Test system: KM12 colon
Procedure text: NCI tumour cell line growth inhibition, 48 h
Property: TGI; scope: individual compounds

- Compound: "CC(=O)C=NCC(=O)O"
  TGI: "> 100 µM"
- Compound: "C1COCCOCCOCCOCCOCCO1.[Cl][Sn]([Cl])([c]1ccccc1)[c]1ccccc1"
  TGI: "26.4 µM"
- Compound: "Cc1cc(C)c2c(c1)C1=NCCN1C2(O)c1ccc(Cl)cc1 (configuration not stated)"
  TGI: "30 µM"
- Compound: "COC(=O)C[CH2][Ge]([CH3])([CH3])[S]c1ccccc1"
  TGI: "> 100 µM"
- Compound: "COC(=O)[C@@]1(Cc2ccc(O)cc2)C[C@@H]2Cc3ccccc3N2N1"
  TGI: "> 100 µM"
- Compound: "CSc1ccc(OCC2OC2O)cc1 (configuration not stated)"
  TGI: "> 95.9 µM"
- Compound: "C/C=C(/CCC1NCCC2c3ccccc3NC12)[Si](C)(C)C (configuration not stated)"
  TGI: "15.6 µM"
- Compound: "COc1ccc(P2(=S)SP(=S)(c3ccc(Cl)cc3)S2)cc1 (configuration not stated)"
  TGI: "> 100 µM"
- Compound: "CCOP(=O)(Nc1ccccc1P(=O)(OCC)OCC)OCC"
  TGI: "> 100 µM"
- Compound: "CC(C)COC(=O)OC(=O)c1ccc(N(C)Cc2cnc3nc(N)nc(N)c3n2)cc1"
  TGI: "> 100 µM"

Tell me the measured TGI of Cc1ccc(N=C2S/C(=C3/CCC=C3N3CCOCC3)N(c3ccc(Cl)cc3)C2=Nc2ccc(C)cc2)cc1 , please. > 100 µM

Which TGI is reported for this compound? O=C(NNCC(F)(F)F)c1ccncc1 > 100 µM

May I ask what TGI has been recorded for O=C1CCCC(=O)N1n1c(Cc2ccccc2)n[nH]c1=O ? > 100 µM

Fill blank: measured TGI of the compound Cn1c(=O)c2ccc(-c3ccc(Br)cc3)nc2n(C)c1=O is ____. > 100 µM

State the recorded TGI for this entry: CN(C)c1ccc(-c2c(C#N)c(O)n(NS(=O)(=O)c3ccccc3)c(=O)c2C#N)cc1 > 100 µM

----------
Listing of recorded TGI by entry.
Tested on: COLO 205 colon
Procedure text: NCI tumour cell line growth inhibition, 48 h

- Compound: "COc1ccc2c(c1)C1OCCNC1CC2 (stereo not drawn)"
  Target or system: "COLO 205 colon"
  TGI: "> 100 µM"

Give the reported TGI for NC1(C(=O)O)CCc2ccc(N(CCCl)CCCl)cc2C1 (stereo not drawn) (system: COLO 205 colon). > 100 µM

I'm curious: which TGI was measured for COC(=O)c1ccc2c(c1)C(=O)c1c-2n(C)c(=O)c2cc(OC)c(OC)cc12 tested on COLO 205 colon? > 50 µM

----------
System: RPMI-8226 leukemia
Procedure text: NCI tumour cell line growth inhibition, 48 h
Measured quantity: TGI (µM)
The reply should contain only the number, in µM.

- Compound: "COc1cc(/C=C/c2nc(N)nnc2C)cc(OC)c1OC"
  Reading: 52.5
- Compound: "C=C1CC[C@@H]2[C@](C)(COC(C)=O)[C@H](OC(C)=O)CC[C@@]2(C)[C@@H]1CC(Nc1ccc(S(=O)(=O)Nc2cc(C)on2)cc1)C1=CCOC1=O (stereo partly drawn)"
  Reading: 5.43
- Compound: "O=C(/C=C/c1ccccc1Cl)c1cccc2ccccc12"
  Reading: 91

Next item in the queue.
What does the data say about its TGI? Entry: CC[C@@H](C(=O)[C@H](C)[C@H](O)[C@@H](C)[C@H]1O[C@H]([C@@H](CC)C(=O)O)CC[C@H]1C)C1O[C@]2(C=C[C@@H](O)[C@]3(CC[C@@](C)([C@H]4CC[C@](O)(CC)[C@H](C)O4)O3)O2)[C@H](C)C[C@@H]1C (stereo partly drawn) 3.07
